measurement target: T1, human GIP receptor (human, UniProt P48546 22-466)
T1 sequence (looked up): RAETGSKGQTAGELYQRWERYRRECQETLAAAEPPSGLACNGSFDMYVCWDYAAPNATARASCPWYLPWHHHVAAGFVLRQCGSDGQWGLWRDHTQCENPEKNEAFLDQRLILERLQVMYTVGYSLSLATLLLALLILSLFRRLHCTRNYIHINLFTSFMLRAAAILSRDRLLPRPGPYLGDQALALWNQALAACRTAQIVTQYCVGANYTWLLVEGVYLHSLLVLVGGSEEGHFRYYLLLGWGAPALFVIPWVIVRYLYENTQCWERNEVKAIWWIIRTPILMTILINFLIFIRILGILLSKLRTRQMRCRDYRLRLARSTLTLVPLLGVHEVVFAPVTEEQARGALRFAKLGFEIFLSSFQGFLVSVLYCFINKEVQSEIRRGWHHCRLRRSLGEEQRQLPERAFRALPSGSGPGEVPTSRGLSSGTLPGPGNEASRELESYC
assay details: cell-based or functional assay
Bridges are numbered along the chain shown (N, C = ends). Where no end group is shown, it is not given here. [ ]: non-standard residue; d: D form. The star is where a group is joined. Acetyl(2-(4-imidazolyl)) = O=C(Cc1c[nH]cn1)*; Aib = CC(C)(N)C(=O)O
Entries and their In vitro activity relative to native peptide (%) vs. GIP

Previously resolved entries follow.
INSERT INTO assay_data (binder, test_result) VALUES
  ('[Acetyl(2-(4-imidazolyl))]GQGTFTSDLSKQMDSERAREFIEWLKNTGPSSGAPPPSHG [triple agonist of SEQ ID NO: 18]', '< 0.1%'),
  ('{Acetyl(2-(4-imidazolyl))}-[Aib]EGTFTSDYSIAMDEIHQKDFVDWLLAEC (bridge 15-19) [triple agonist of SEQ ID NO: 84]', '< 0.1%');

Now, please, on to the next binder.
Which In vitro activity relative to native peptide (%) vs. GIP is listed for H[Aib]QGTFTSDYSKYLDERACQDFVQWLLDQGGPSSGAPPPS [triple agonist of SEQ ID NO: 27] ?
0.9%
